Biological target: human 11β-HSD1 (Homo sapiens, UniProt P28845)
Construct: expressed in transfected cells
Sequence (P28845 whole entry): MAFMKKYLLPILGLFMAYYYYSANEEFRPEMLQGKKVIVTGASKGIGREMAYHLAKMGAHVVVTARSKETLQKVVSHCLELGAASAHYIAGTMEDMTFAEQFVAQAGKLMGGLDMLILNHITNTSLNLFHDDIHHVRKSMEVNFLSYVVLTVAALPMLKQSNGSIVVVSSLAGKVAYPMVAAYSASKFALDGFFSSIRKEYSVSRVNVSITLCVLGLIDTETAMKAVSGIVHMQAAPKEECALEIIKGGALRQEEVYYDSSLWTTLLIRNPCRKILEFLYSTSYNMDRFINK
Assay: 11β-HSD1 reductase activity (cortisone to cortisol) in lysates of stably transfected HEK-293 cells
Type: biochemical
Settings: cell lysates, 7 inhibitor concentrations at factor 2 intervals, experiment 3; read-out: IC 50 11β-HSD1, determination 3
parameter: IC50

COC(=O)[C@@]1(C)CC[C@]2(C)CC[C@]3(C)C(=CC(=O)[C@@H]4[C@@]5(C)CC[C@H](Oc6ccccc6C(=O)O)C(C)(C)[C@@H]5CC[C@]43C)[C@@H]2C1 = 652 nM

// switching to the query compound
input: Read off the recorded IC50 for COc1ccc(CCNC(=O)C23CCC(C)(C(=O)C2=O)C3(C)C)cc1OC (centres unmarked)
output: 2240 nM

---

Biological target: human 11β-HSD2 (Homo sapiens, UniProt P80365)
Construct: expressed in transfected cells
Sequence (P80365 1-405): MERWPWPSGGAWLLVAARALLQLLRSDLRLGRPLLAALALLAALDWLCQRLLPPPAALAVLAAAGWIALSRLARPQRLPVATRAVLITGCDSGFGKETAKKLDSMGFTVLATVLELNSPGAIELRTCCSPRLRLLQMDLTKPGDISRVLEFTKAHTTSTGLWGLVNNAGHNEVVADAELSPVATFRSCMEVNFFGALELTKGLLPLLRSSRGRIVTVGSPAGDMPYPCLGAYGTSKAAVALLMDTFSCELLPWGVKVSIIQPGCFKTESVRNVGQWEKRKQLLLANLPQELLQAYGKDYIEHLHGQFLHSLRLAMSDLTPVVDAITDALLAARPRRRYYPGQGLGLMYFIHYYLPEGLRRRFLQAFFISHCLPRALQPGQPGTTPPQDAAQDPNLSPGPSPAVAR
Assay: 11β-HSD2 oxidase activity (cortisol to cortisone) in lysates of stably transfected HEK-293 cells
Format: biochemical
Settings: 20 μM compound, 25 nM cortisol, HEK-293 cell lysates; read-out: 11β-HSD2 % of control
parameter: remaining activity at 20 µM
Include the unit after the number when you answer.

Consider the following illustrative entries.
COc1ccc(CCNC(=O)C23CCC(C)(C(=O)C2=O)C3(C)C)cc1OC (stereo not shown) [BNW7] = 140%
CSc1nc2cc(C)c(C)cc2n1C1OC(CO)C(O)C1O (stereo not shown) [BNW18] = 82.8%

input: Answer with reported remaining activity at 20 µM of NC(=O)c1c(NC(=O)C2CC=CCC2C(=O)O)sc2c1CCCCC2 (stereo not shown) [BNW8]
output: 103%

input: Return the recorded remaining activity at 20 µM value; entry: Cc1n[nH]c(O)c1C(c1ccc(-c2ccc(Cl)c(C(=O)O)c2)o1)c1c(O)n[nH]c1C [BNW5]
output: 97.5%

input: Read the entry COc1cc2c(cc1OC)C(COc1ccc([N+](=O)[O-])cc1)N(C(=O)c1ccc(Cl)c([N+](=O)[O-])c1)CC2 (stereo not shown) [BNW27] and write its reported remaining activity at 20 µM.
output: 126%

input: Consider the compound COc1ccc(CNC(=O)C2CCC(=O)N2C2CCCC2)cc1OC (stereo not shown) [BNW26] and give its recorded remaining activity at 20 µM.
output: 137%

input: Provide only the value of recorded remaining activity at 20 µM for CCCCOc1ccc(C(=O)C2=C(O)C(=O)N(CCOC)C2c2cccnc2)c(C)c1 (stereo not shown) [BNW3]
output: 53.6%

---

Target: human 11β-HSD1 (Homo sapiens, UniProt P28845)
Construct: expressed in transfected cells
Assay: 11β-HSD1 activity in intact transfected HEK-293 cells
Assay type: cell-based
Conditions: 11β-HSD1, intact HEK-293 cells, mean ± SD; read-out: IC50 in intact cells
parameter: IC50 (nM)
Field format: number, assumed nM, no unit text.

input: Param request: IC50 | system human 11β-HSD1 (Homo sapiens, UniProt P28845) | item COc1ccc(CCNC(=O)C23CCC(C)(C(=O)C2=O)C3(C)C)cc1OC (stereo not shown) [BNW7]
output: 550

---

Target: UniProtKB P37059
Sequence (P37059 1-387): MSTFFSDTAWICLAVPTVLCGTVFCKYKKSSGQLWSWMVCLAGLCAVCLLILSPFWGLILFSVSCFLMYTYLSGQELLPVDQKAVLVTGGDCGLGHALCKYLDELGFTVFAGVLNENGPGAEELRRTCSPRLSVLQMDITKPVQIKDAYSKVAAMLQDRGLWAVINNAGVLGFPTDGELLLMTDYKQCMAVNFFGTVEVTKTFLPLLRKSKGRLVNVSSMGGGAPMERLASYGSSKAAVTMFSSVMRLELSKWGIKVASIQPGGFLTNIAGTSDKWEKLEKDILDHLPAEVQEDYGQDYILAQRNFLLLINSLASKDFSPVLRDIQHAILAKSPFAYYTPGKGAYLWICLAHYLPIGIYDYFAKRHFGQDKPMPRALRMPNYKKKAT
parameter: IC50
For clarity, give the value followed by its unit.

input: Respond only with IC50 recorded for CC(=O)OC1CC[C@]2(C)C3=C(C(=O)C[C@H]2C1(C)C)[C@]1(C)CCC(C(C)CCC(=O)O)[C@@]1(C)CC3=O (stereo partly shown)
output: 28.3 µM

---

Molecular target: human 11β-HSD2 (Homo sapiens)
Construct: expressed in transfected cells
Sequence (P80365 1-405): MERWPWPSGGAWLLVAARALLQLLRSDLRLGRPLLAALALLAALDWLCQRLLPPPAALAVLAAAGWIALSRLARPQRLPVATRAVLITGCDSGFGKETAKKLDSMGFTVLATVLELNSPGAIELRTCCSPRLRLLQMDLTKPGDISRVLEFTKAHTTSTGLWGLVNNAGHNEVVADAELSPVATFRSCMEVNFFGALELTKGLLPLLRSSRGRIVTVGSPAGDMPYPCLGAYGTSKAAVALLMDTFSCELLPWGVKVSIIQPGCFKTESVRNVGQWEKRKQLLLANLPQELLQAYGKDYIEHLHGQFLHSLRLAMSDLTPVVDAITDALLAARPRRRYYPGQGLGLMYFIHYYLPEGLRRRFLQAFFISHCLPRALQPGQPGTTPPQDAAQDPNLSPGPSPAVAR
Assay: 11β-HSD2 oxidase activity (cortisol to cortisone) in lysates of stably transfected HEK-293 cells
Format: biochemical
Details: 20 μM compound, 25 nM cortisol, HEK-293 cell lysates; read-out: 11β-HSD2 % of control
Each entry below carries its reported remaining activity at 20 µM.
A number alone suffices; assume %.

Observe how each entry below is paired with its result.
CCN(CC(O)COc1cc(C)c(Cl)c(C)c1)S(=O)(=O)O (stereo not shown) = 96.8
CC1(C)[C@@H](OCO)CC[C@]2(C)[C@H]3C(=O)C=C4C5=C[C@@](C)(C(=O)O)CC[C@]5(C)CC[C@@]4(C)[C@]3(C)CC[C@@H]12 = 56.9
CCC(Sc1nnc(-c2ccc(OC)c(OC)c2)c(-c2ccc(OC)c(OC)c2)n1)C(=O)N(CC)CC (stereo not shown) = 140

Then there is this molecule:
input: Specify reported remaining activity at 20 µM for the molecule shown: CCOc1ccc(C2C(C(=O)c3ccc(Cl)cc3)=C(O)C(=O)N2CCCn2ccnc2)cc1OCC (stereo not shown)
output: 104

---

Biological target: human 11β-HSD1 (Homo sapiens)
Construct: expressed in transfected cells
Assay: 11β-HSD1 reductase activity (cortisone to cortisol) in lysates of stably transfected HEK-293 cells
Format: biochemical
Settings: IC 50 11β-HSD1, determination 3
Procedure: Cells were grown in 10 cm dishes to 80% confluence and incubated for 16 h in steroid-free medium (charcoal-treated fetal calf serum (FCS) from HyClone, Logan, Utah). Cells were rinsed once with phosphate-buffered saline (PBS), detached and centrifuged for 3 min at 150×g. […] At the day of experiment, cell pellets were resuspended in buffer TS2 (100 mM NaCl, 1 mM EGTA, 1 mM EDTA, 1 mM MgCl2, 250 mM sucrose, 20 mM Tris-HCl, pH 7.4), sonicated and activities determined immediately. […]
parameter: IC50 (nM)
All answers are understood in nM, so give the number only.

input: For the compound CC(=O)OC1CC[C@]2(C)C3=C(C(=O)C[C@H]2C1(C)C)[C@]1(C)CCC(C(C)CCC(=O)O)[C@@]1(C)CC3=O (stereo partly shown) , report IC50.
output: 114

---

Target: human 11β-HSD2 (Homo sapiens)
Construct: expressed in transfected cells
Test: 11β-HSD2 oxidase activity (cortisol to cortisone) in lysates of stably transfected HEK-293 cells
Assay type: biochemical
Conditions: cell lysates, 7 inhibitor concentrations at factor 2 intervals, experiment 3; read-out: IC 50 11β-HSD2, determination 3
parameter: IC50 (nM)
Quick reminder: number only, in nM, skip the unit.

Some compounds with known IC50 results, for comparison:
CC1(C)[C@@H](N)CC[C@]2(C)[C@H]3C(=O)C=C4[C@@H]5C[C@@](C)(C(=O)O)CC[C@]5(C)CC[C@@]4(C)[C@]3(C)CC[C@@H]12 [BNW25] = 64.9
COC(=O)[C@@]1(C)CC[C@]2(C)CC[C@]3(C)C(=CC(=O)[C@@H]4[C@@]5(C)CC[C@H](Oc6ccccc6C(=O)O)C(C)(C)[C@@H]5CC[C@]43C)[C@@H]2C1 [BNW13] = 299

input: Give reported IC50 value for CC(=O)OC1CC[C@]2(C)C3=C(C(=O)C[C@H]2C1(C)C)[C@]1(C)CCC(C(C)CCC(=O)O)[C@@]1(C)CC3=O (stereo partly drawn) [BNW16]
output: 3870

Cited source: patent US20080153791A1
